System: SR leukemia
Experiment notes: NCI tumour cell line growth inhibition, 48 h
compounds and their reported TGI

Solved entries:
>>> observed_measurement("COC(=O)c1ccc(C)cc1C1CN=NC12Cc1cc(C)c(C)cc1C2=O (configuration not stated)")
"> 100 µM"
>>> observed_measurement("O=C1c2ccccc2C2(c3ccc(Cl)cc3)NCc3ccccc3CN12 (configuration not stated)")
"> 100 µM"
>>> observed_measurement("Cc1sc2nc(-c3ccccn3)c(/C=N/N=C(N)N)n2c1C")
"> 100 µM"
>>> observed_measurement("Cn1cc(-c2csc(-c3cn(CCN4CCOCC4)c4ccc(F)cc34)n2)c2cccnc21")
"6.9 µM"
>>> observed_measurement("Cn1c2ccccc2c2cc(-c3ccccc3)c3c(c21)C(=O)C=CC3=O")
"17.5 µM"

Reported TGI (SR leukemia) for entry CC1NOC(NS(=O)(=O)c2ccc(N=Nc3c(O)c(C(=O)O)cc4ccccc34)cc2)C1C (configuration not stated) is > 100 µM

Reported TGI (SR leukemia) for entry C#CCOCn1cnc2ncnc(Cl)c21 is > 100 µM

Reported TGI (SR leukemia) for entry COc1cc2c3c(cc(Cl)nc3c1OC)C(O)(CC(C)=O)C(=O)N2 (configuration not stated) is > 66.9 µM

Reported TGI (SR leukemia) for entry COC(=O)c1[nH]nc(-c2ccccc2)c1N1CCCCC1 is > 100 µM

Reported TGI (SR leukemia) for entry COc1ccc(C(=O)Nc2ncc(Cc3ccc(F)cc3)s2)cc1 is > 100 µM

Reported TGI (SR leukemia) for entry Cc1ccc(NC(=O)c2cccc([N+](=O)[O-])c2O)c(C)c1 is > 100 µM

Reported TGI (SR leukemia) for entry O=C(c1ccc(Cl)cc1)N(Cc1cccnc1)C(=S)N(Cc1cccnc1)C(=O)c1ccc(Cl)cc1 is > 100 µM

Reported TGI (SR leukemia) for entry Oc1[nH]c2ccccc2c1N=NC(=S)N1CCCCCC1 is 3.44 µM

Reported TGI (SR leukemia) for entry Cc1ccccc1NC(=S)N/N=C(/c1ccccc1)c1ccccn1 is > 21.2 µM

---

Test system: SN12C renal
Experiment notes: NCI tumour cell line growth inhibition, 48 h
Metric name: GI50

>>> observed_measurement("Cc1c(N2C(=O)/C(=C\\c3ccc(O)cc3)N=C2c2ccccc2)c(=O)n(-c2ccccc2)n1C")
"> 100 µM"
>>> observed_measurement("CC(C)[C@@H](C(=O)O[C@@H]1/C=C/C(=O)O[C@@H](C)CCC/C=C/[C@@H]2C[C@H](O)C[C@H]21)[N+](C)(C)C")
"> 100 µM"
>>> observed_measurement("Cn1cc(-c2csc(-c3cn(CCN4CCOCC4)c4ccc(F)cc34)n2)c2cccnc21")
"3.15 µM"
>>> observed_measurement("COc1cc(Nc2ncc3c(n2)-c2ccc(Cl)cc2C(c2c(F)cccc2OC)=NC3)ccc1C(=O)O")
"4.04 µM"
>>> observed_measurement("Cc1sc2nc(-c3ccccn3)c(/C=N/N=C(N)N)n2c1C")
"14.4 µM"

The record that follows has no GI50 shown yet.
Memo: O=C(c1ccc(O)cc1)c1ccc(C(=O)c2ccc(O)cc2)cc1 , reported GI50: > 100 µM

---

System: DMS 273 small cell lung
Experiment notes: NCI tumour cell line growth inhibition, 48 h
Metric name: TGI (µM)
Reply with just the number (in µM).

>>> observed_measurement("Cn1cc2ccccc2c1-c1nc(F)nc(Oc2ccc3c(c2)CC[C@@H]2C3CC[C@]3(C)C(O)CCC23)n1 (some centres undefined)")
43.2

The record that follows has no TGI shown yet.
Memo: COc1cc(C)c(C(=O)/C=C/c2cc(OC)c(O)c(OC)c2)cc1O , reported TGI: 70.1

---

molecules and their reported TGI
System: IGROV1 ovarian
Experiment notes: NCI tumour cell line growth inhibition, 48 h

>>> observed_measurement("COc1ccc(-c2cc(-c3ccccc3)c(C#N)c(=O)[nH]2)cc1")
"> 100 µM"

The record that follows has no TGI shown yet.
Memo: CC1=CC(=O)c2cccc(NC3=NCCO3)c21 , reported TGI: > 100 µM

---

Tested on: NCI-H460 lung
Thanks in advance; please answer with one of these: class 1 for active, class 0 for inactive

Example results:
>>> class_label("c1ccc(-c2n(Cc3ccc4ccccc4n3)c3ccccc3[n+]2Cc2ccc3ccccc3n2)cc1")
"class 1"
>>> class_label("Oc1c(I)cc(I)cc1CNCCCN(Cc1ccccn1)Cc1ccccn1")
"class 0"
>>> class_label("COc1ccc(C(=O)Nc2ncc(Cc3ccc(F)cc3)s2)cc1")
"class 1"
>>> class_label("C[C@@H]1CN(Cc2ccc(/C=C/c3n[nH]c4ccc5nc(-c6cn[nH]c6C(F)(F)F)c6c(c5c34)CCCC6)cc2)C[C@H](C)O1")
"class 0"
>>> class_label("COc1cc(C2c3cc4c(cc3C3OC(=O)C2C3CO)OCO4)cc(OC)c1OC (configuration not stated)")
"class 1"
>>> class_label("c1ccc(Cn2cc3c(c2)-c2oncc2CC3)cc1")
"class 1"
>>> class_label("CC(=O)OC1CCC2(C)C(CCC3C2CCC2(C)C(C4=CC(=O)OC4)CCC32)C1 (configuration not stated)")
"class 0"
>>> class_label("COC(=O)Nc1nc2c(OC)c(OC)c(OC)cc2[nH]1")
"class 0"
>>> class_label("CC(C)(C)c1ccc(C(=O)N/N=C/c2ccc(O)cc2O)cc1")
"class 1"
>>> class_label("Cc1ccc(C(=O)Nc2ccc(CN3CCN(C)CC3)c(C(F)(F)F)c2)cc1C#Cc1cncc2ncccc12")
"class 0"

I would be grateful if you could indicate the recorded call for C/C1=C\CC[C@@](C)(O)[C@H]2C[C@H](CC/C(C)=C/CC1)C1(CC1)C(=O)O2 .
class 0

I would be grateful if you could indicate the recorded call for Nc1c(C(=O)Nc2cccc3ccccc23)sc2nc3c(cc12)CCCC3 .
class 0

I would be grateful if you could indicate the recorded call for O=S(=O)(NC(=S)Nc1ccccc1)c1ccc(N2N=C3c4ccccc4CC3C2c2ccc(Cl)cc2)cc1 (configuration not stated) .
class 0

I would be grateful if you could indicate the recorded call for O=C(O)c1cn(C2CC2)c2cc(N3CCN(S(=O)(=O)c4ccc(Cl)c(Cl)c4)CC3)c(F)cc2c1=O .
class 0

I would be grateful if you could indicate the recorded call for CCC[CH2][Sn]1([CH2]CCC)[O]C(=O)C[S]1 .
class 0

I would be grateful if you could indicate the recorded call for O=C(Cc1ccc(/C=C/C(=O)c2ncc[nH]2)cc1)Nc1ccc(Br)cc1 .
class 0

I would be grateful if you could indicate the recorded call for COc1ccc2nc(-c3ccccc3)cc(Nc3ccc(/C(C)=N/O)cc3)c2c1 .
class 0

---

Tested on: HCT-116 colon
Experiment notes: NCI tumour cell line growth inhibition, 48 h
Metric name: TGI

Solved entries:
>>> observed_measurement("CC1CCC2c3c([nH]c4ccccc34)C3C(=O)N(C4CCCCC4)C(=O)C3C2C1 (configuration not stated)")
"24.2 µM"
>>> observed_measurement("O=C1Nc2ccccc2NC1C1OC(c2ccccc2)=CC1=O (configuration not stated)")
"> 100 µM"
>>> observed_measurement("Cc1sc2nc(-c3ccccn3)c(/C=N/N=C(N)N)n2c1C")
"9.74 µM"
>>> observed_measurement("CC(=O)NNC(=O)c1nn(-c2ccc(Cl)cc2)cc1OC(C)=O")
"> 100 µM"
>>> observed_measurement("[N-]=[N+]=C1CNC(=O)NC1=O")
"> 100 µM"

Memo: CC12C=CC(C)(O1)C1C2c2ccccc2S1(=O)=O (configuration not stated) , reported TGI: > 100 µM

Memo: Brc1cccc(C2(CCCC3(c4cccc(Br)n4)OCCO3)OCCO2)n1 , reported TGI: > 100 µM

Memo: COc1ccc(-c2nnc3n(C)c(=O)c4ccccc4n23)cc1O , reported TGI: > 50.3 µM

---

Test system: SF-539 CNS
Experiment notes: NCI tumour cell line growth inhibition, 48 h; in the data active = GI50 below about 0.43 µM; inactive = the rest
Thanks in advance; please answer with one of these: YES = active, NO = inactive

Example results:
>>> class_label("Cc1c(N2C(=O)/C(=C\\c3ccc(O)cc3)N=C2c2ccccc2)c(=O)n(-c2ccccc2)n1C")
"NO"
>>> class_label("C/C1=C\\CC[C@@](C)(O)[C@H]2C[C@H](CC/C(C)=C/CC1)C1(CC1)C(=O)O2")
"NO"
>>> class_label("Cc1cc(-c2ccccc2)c(C)n1Cc1ccc(Cl)cc1")
"NO"
>>> class_label("O=C1OCC2=C1C(c1cccc(F)c1)c1cc3c(cc1N2CCO)OCCO3 (stereo not drawn)")
"YES"
>>> class_label("COc1ccc(/C=C/c2nc(N3CCOCC3)c3cc(F)c(F)cc3n2)cc1OC")
"NO"
>>> class_label("c1ccc(-c2n(Cc3ccc4ccccc4n3)c3ccccc3[n+]2Cc2ccc3ccccc3n2)cc1")
"YES"
>>> class_label("CC(C)(C)c1ccc(C(=O)N/N=C/c2ccc(O)cc2O)cc1")
"NO"
>>> class_label("NC1=CC(=O)C(=O)c2cccnc21")
"NO"
>>> class_label("COc1cc2c(cc1OCCCCC(=O)Nc1ccc(-c3nc4ccccc4s3)cc1)N=C[C@@H]1CCCN1C2=O")
"NO"
>>> class_label("CCC[CH2][Sn]1([CH2]CCC)[O]C(=O)C[S]1")
"NO"

I would be grateful if you could indicate the recorded call for Cc1cc[c-]cc1.Fc1c[c-]c(-c2ccccn2)c(F)c1.N#CCC[PH+](CCC#N)c1ccccc1.[Pt+2] .
NO

I would be grateful if you could indicate the recorded call for O=C(Cc1ccccc1)Nc1nnc(CCSCCc2nnc(NC(=O)Cc3ccccc3)s2)s1 .
NO

I would be grateful if you could indicate the recorded call for COc1cc(Nc2ncc3c(n2)-c2ccc(Cl)cc2C(c2c(F)cccc2OC)=NC3)ccc1C(=O)O .
NO

I would be grateful if you could indicate the recorded call for O=C(Cc1ccc(/C=C/C(=O)c2ncc[nH]2)cc1)Nc1ccc(Br)cc1 .
NO

I would be grateful if you could indicate the recorded call for Cc1cc2nc3ccc(N=Nc4ccc(N(C)C)cc4)cc3n(-c3ccccc3)c-2cc1=N .
YES
